Below is a list of entries, each paired with its recorded CC50 at 6 days value.
assay: Cytotoxicity determination in HepG2.2.15 cells (CCK-8 cell viability); format: cell-based; conditions: human, 6 days treatment, CCK-8 assay, highest concentration 100 uM
State just the number; it will be interpreted in µM.

CCOC(=O)C1=C(CN2CC(F)(F)[C@H]3[C@@H]2CN(C(C)=O)N3CCC(C)(C)C(=O)O)NC(c2nccs2)=N[C@H]1c1cccc(F)c1Cl (single isomer, unassigned) [Compound 81B]
35.9

Next item in the queue.
Qu. Entry CCOC(=O)C1=C(CN2CC(F)(F)[C@@H]3CN(S(=O)(=O)[C@H]4C[C@H](C(=O)O)C4)C[C@@H]32)NC(c2nccs2)=N[C@H]1c1cccc(F)c1C (single isomer, unassigned) : reported CC50 at 6 days = ?
Ans. 36.7
